Where do these numbers come from? They come from patent US9115380B2.

Test system: rabbit reticulocyte lysate
Format: biochemical
Details: rabbit reticulocyte lysate, poly(A)-tailed firefly luciferase RNA, cap I structure
endpoint_name: average relative translation efficiency (%)
Respond numerically; units are % and should not be typed.

Recorded average relative translation efficiency, per entry:
[[record]]
molecule = "Nc1nc2c(ncn2[C@@H]2O[C@H](COP(=O)(O)OP(=O)(O)OP(=O)(O)O)[C@@H](O)[C@H]2F)c(=O)[nH]1 [2′-F-dGTP]"
recorded_result = 133

[[record]]
molecule = "Nc1nc2c(ncn2[C@@H]2O[C@H](COP(=O)(O)OP(=O)(O)OP(=O)(O)O)[C@@H](O)[C@H]2N)c(=O)[nH]1 [2′-amino-dGTP]"
recorded_result = 100

[[record]]
molecule = "COc1nc(N)nc2c1ncn2[C@@H]1O[C@H](COP(=O)(O)OP(=O)(O)OP(=O)(O)O)[C@@H](O)[C@H]1O [O^6-methyl-GTP, O^6-methylguanosine-5′-triphosphate]"
recorded_result = 97


Give the reported value of average relative translation efficiency for this record: [N-]=[N+]=N[C@@H]1[C@H](O)[C@@H](COP(=O)(O)OP(=O)(O)OP(=O)(O)O)O[C@H]1n1cnc2c(=O)[nH]c(N)nc21 [2′-azido-dGTP]
107
